The sequences listed here are annotated with their PBM E-score.
# system_tested: Abf1 (UniProt P14164)
# Sequence: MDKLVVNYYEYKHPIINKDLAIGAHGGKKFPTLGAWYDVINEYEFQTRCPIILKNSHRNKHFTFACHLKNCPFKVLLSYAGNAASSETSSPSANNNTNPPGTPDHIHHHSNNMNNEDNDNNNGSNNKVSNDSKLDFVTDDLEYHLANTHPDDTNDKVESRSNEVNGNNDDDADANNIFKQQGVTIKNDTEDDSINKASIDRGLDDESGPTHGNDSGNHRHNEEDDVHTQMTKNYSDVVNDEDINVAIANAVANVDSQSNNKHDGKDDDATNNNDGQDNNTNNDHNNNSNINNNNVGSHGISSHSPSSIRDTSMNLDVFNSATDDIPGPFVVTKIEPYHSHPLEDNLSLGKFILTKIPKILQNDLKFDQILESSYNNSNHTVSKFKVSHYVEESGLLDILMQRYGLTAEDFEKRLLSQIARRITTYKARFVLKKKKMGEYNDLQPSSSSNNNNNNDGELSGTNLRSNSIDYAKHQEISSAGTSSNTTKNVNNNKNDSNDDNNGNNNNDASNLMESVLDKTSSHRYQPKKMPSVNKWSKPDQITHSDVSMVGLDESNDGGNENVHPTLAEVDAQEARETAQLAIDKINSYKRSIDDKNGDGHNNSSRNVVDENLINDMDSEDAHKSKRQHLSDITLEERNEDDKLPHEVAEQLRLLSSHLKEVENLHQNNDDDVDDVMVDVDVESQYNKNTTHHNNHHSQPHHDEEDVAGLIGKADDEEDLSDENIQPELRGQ
# assay_name: PBM E-score (8-mer binding enrichment) (E-score (-0.5 to 0.5)); higher = stronger / more preferred TF binding
# condition_info: protein concentration: 200 nM; construct: GST-full length
The full ranking holds about 33,000 sequences; the median of “E-score (-0.5 to 0.5)” is about -0.015, and the highest 2% start at about 0.3. The sample holds the highest values, similar sequences and a random draw of the others, so the mix is not that of the screen.
test_readout: PBM E-score

> print(dat)
    entry.sequence  test.readout  quantitative.readout
 1        CGTGATCC   PBM E-score               -0.0112
 2        CTCACTCA   PBM E-score                0.0709
 3        GACTTCTC   PBM E-score                 0.167
 4        CTGATAAC   PBM E-score                 0.167
 5        CGGCCCGC   PBM E-score                -0.121
 6        CCGTACCA   PBM E-score                 0.303
 7        TCGTACCA   PBM E-score                 0.322
 8        GGTGATCA   PBM E-score                 0.305
 9        ATCACTCG   PBM E-score                  0.31
10        CTGATAAA   PBM E-score                 0.112
11        ACGTACCA   PBM E-score                0.0604
12        ACGACGTG   PBM E-score                 0.232
13        GTGATAAA   PBM E-score                 0.412
14        AGTGATCC   PBM E-score                 0.189
15        CTGACTCC   PBM E-score                -0.131
16        AGTGATCG   PBM E-score                 0.239
17        CCTTGAAG   PBM E-score                -0.111
18        AATTCCGT   PBM E-score                 0.115
19        CATTTGAG   PBM E-score                0.0534
20        GCTGATCA   PBM E-score                 0.139
21        GCGATAAC   PBM E-score                 0.158
22        ATCACTCA   PBM E-score                 0.369
23        AAGATAAC   PBM E-score                 0.171
24        GCGTCGGA   PBM E-score                -0.111
25        AGTGATCA   PBM E-score                 0.416
26        AACACTCC   PBM E-score                -0.121
27        GAGCCGTA   PBM E-score                 0.347
28        ATTTTACG   PBM E-score                 0.322
29        GGGGATCA   PBM E-score               -0.0388
30        GACCGGCC   PBM E-score                -0.229
31        AAATGGAG   PBM E-score                0.0525
32        ACAGGGGC   PBM E-score                -0.194
33        GTGATAAC   PBM E-score                 0.371
34        CGCAGATA   PBM E-score                0.0501
35        ACGTACTA   PBM E-score                 0.188
36        CGGTCAGC   PBM E-score                -0.137
37        GACGAGTC   PBM E-score                 0.241
38        AAGATAAA   PBM E-score                 0.132
39        CTATGCAC   PBM E-score                 0.178
40        GGAGCCCC   PBM E-score                -0.293
41        ATAAGGAT   PBM E-score              -0.00817
42        CAATATTG   PBM E-score                0.0635
43        AAGCCGTA   PBM E-score                 0.193
44        GTGGACAC   PBM E-score               -0.0874
45        CCCTCGTA   PBM E-score                 0.126
46        ATCACTCC   PBM E-score                 0.345
